Attribution: ChEMBL document CHEMBL1201862

Test system: Malme-3M
assay-name: NCI tumour cell line growth inhibition, 48 h
The source made the active and inactive calls. Cut-off read from the data, not from the text of the source: active = GI50 up to about 1.1 µM and inactive = higher.
Answer with one of the outcomes given here: Y (active), N (inactive)

molecule	class-name
Cn1c2c3ccc(Cl)cc3nc-2c(Cl)c2ccccc21	N
C[O+]=C1C=CC(=C2SC(c3ccccc3)(c3ccccc3)c3ccccc32)C=C1.[O-][Cl+3]([O-])([O-])[O-]	N
CCOC(=O)[C@@]12C[C@](/C=C/OC)(O[Si](C)(C)C)[C@@]13c1cc(OC)c(OC)cc1CCN3C(=O)C2=O	N
COc1ccc(/C=C2\CCCC(CN(C)C)C2=O)cc1 (stereo unspecified)	N
O=[N+]([O-])c1ccc(/C=C/c2ccc(/N=N/c3ccc(/C=C/c4ccc([N+](=O)[O-])cc4S(=O)(=O)O)c(S(=O)(=O)O)c3)cc2S(=O)(=O)O)c(S(=O)(=O)O)c1	N

In: Any idea what this test logged for O=C(CCC(=O)Nc1cccc(Cl)c1)CC(=O)c1ccc(Cl)cc1 ?
Out: N

In: // same read-out, input: CCOP(=O)(OCC)/C(=C\n1ccc(=O)[nH]c1=S)C(=O)OC
Out: N

In: // same read-out, input: ON[C@H]1C[C@@H](n2cnc3c(NC4CC4)ncnc32)[C@H](O)[C@@H]1O
Out: N

In: // same read-out, input: O=[N+]([O-])c1ccc(C2CC(c3ccc(NCc4nc5ccccc5[nH]4)cc3)=NO2)cc1 (stereo unspecified)
Out: N

In: // same read-out, input: Cc1ccc(S(=O)(=O)NC(C(=O)O)C(C)C)cc1 (stereo unspecified)
Out: N

In: // same read-out, input: COc1ccc(C2Oc3ccc(O)cc3[C@@H]2C)cc1OC (stereo partly specified)
Out: N

In: // same read-out, input: O=P(O)(Cc1ccccc1)c1ccccc1-c1ccccc1
Out: N

In: // same read-out, input: CCOC(=O)C(=[N+]=[N-])C(=O)CSC#N
Out: N

In: // same read-out, input: Cc1ccc(NC(=O)CC(=O)n2nc(C)c(/N=N/c3cccc(C)c3)c2C)cc1
Out: N

In: // same read-out, input: NC(=O)N1N=C2c3ccccc3CC[C@@H]2C1c1ccccc1 (stereo partly specified)
Out: N

In: // same read-out, input: N#CCCN(c1ccc(/C=N/c2ccccc2)cc1)S(=O)(=O)c1ccccc1
Out: N

In: // same read-out, input: C[Si](C)(C)c1ccc(CC2(Cc3ccc([Si](C)(C)C)cc3)CCNC2)cc1
Out: N

* * *

Tested on: NCI-H23
assay-name: NCI tumour cell line growth inhibition, 48 h
The source made the active and inactive calls. Rule as the data show it: active = GI50 up to about 1.1 µM and inactive = higher.
Answer with one of the outcomes given here: Y = active, N = inactive

Example cases with answers are listed next.
molecule	class-name
CC(C)=CC1CC(=[N+]=[N-])C(=O)C1(C)C (stereo unspecified)	N
c1csc(-c2ccsc2-c2ccsc2)c1	N
Cc1cccc(/C=N/C23CC4CC(CC(C4)C2)C3)c1	N
O=C1c2ccccc2C(=O)c2c1oc1cc(O)c(Cl)cc21	Y
O=c1[nH]c(-c2ccc([N+](=O)[O-])cc2)nc2ccc(Cl)cc12	N

In: Any idea what this test logged for COc1ccc(N/N=C/C2=CC(C)(C)C(C#N)(C#N)C(O)=C2C#N)cc1 ?
Out: N

In: // same read-out, input: O=C(O)CNCP(=O)(O)O [GLYPHOSATE]
Out: N

In: // same read-out, input: C#Cc1ccccc1C(=O)OC
Out: N

In: // same read-out, input: CC(=O)NC1C(OCc2ccccc2)OC(CO)C(O)C1OC(C)C(=O)N[C@@H](C)C(=O)N[C@H](CCC(=O)OCCNc1c2ccccc2nc2cccc([N+](=O)[O-])c12)C(N)=O (stereo partly specified)
Out: Y

In: // same read-out, input: C[C@]12CCC(=O)C=C1CC[C@@H]1C2CC[C@]2(C)Nc3[nH]ncc3CC12 (stereo partly specified)
Out: N

In: // same read-out, input: CC(=O)OC1COC(N2C(=O)C(=O)c3c(C)cc(Cl)nc32)C(OC(C)=O)C1OC(C)=O (stereo unspecified)
Out: N

In: // same read-out, input: CN(CCNC(=O)c1c[nH]c2c1Cc1ccccc1-2)CCNC(=O)c1c[nH]c2c1Cc1ccccc1-2
Out: N

In: // same read-out, input: C=CC[C@H]1O[Si](C(C)(C)C)(C(C)(C)C)[C@H](C)[C@H]1C
Out: N

In: // same read-out, input: O=C1/C(=C/c2cccc([N+](=O)[O-])c2)N=C(c2ccccc2)N1c1nc2ccc(Sc3ccccc3)cc2[nH]1
Out: N

In: // same read-out, input: COc1ccc2c(c1)C1OCCNC1CC2 (stereo unspecified)
Out: N

In: // same read-out, input: Cc1ccc(NC(=O)SCCC(=O)O)cc1
Out: N

In: // same read-out, input: CC(=O)O[C@H]1CC[C@@]2(C)C(=CC[C@@H]3[C@@H]2CC[C@]2(C)c4c(C)n[nH]c4C[C@@H]32)C1
Out: N

* * *

Test system: SNB-75
assay-name: NCI tumour cell line growth inhibition, 48 h
The source made the active and inactive calls. No stated cut-off is given here; in the data, active = GI50 up to about 1.1 µM and inactive = higher.
Reported GI50 values are given for each entry in this list.

Below, each entry is followed by its recorded GI50 result.
compound	GI50
NC(CCCCNC(=O)C(Cc1ccccc1)NC(=O)OCc1ccccc1)C(=O)NC(CCCCNC(=O)C(Cc1ccccc1)NC(=O)OCc1ccccc1)C(=O)NC(CCCCNC(=O)C(Cc1ccccc1)NC(=O)OCc1ccccc1)C(=O)NC(CCCCNC(=O)C(Cc1ccccc1)NC(=O)OCc1ccccc1)C(=O)NC(CCCCNC(=O)C(Cc1ccccc1)NC(=O)OCc1ccccc1)C(=O)NC(CCCCNC(=O)C(Cc1ccccc1)NC(=O)OCc1ccccc1)C(=O)O (centres undefined)	> 100 µM (inactive)
CN1CCOC(c2ccccc2)O1 (centres undefined)	> 100 µM (inactive)
C=CC[C@H]1O[Si](C(C)(C)C)(C(C)(C)C)[C@H](C)[C@H]1C	> 100 µM (inactive)
C#CCNC(CS)C(=O)O (centres undefined)	> 100 µM (inactive)
CCC1CN(C(=O)c2ccccc2)C(Cc2c[nH]c3ccccc23)C(=O)C1CC(=O)OC (centres undefined)	88.3 µM (inactive)

In: Consider the compound shown here: O=S(=O)(O)c1ccc(Nc2ccnc3ccccc23)cc1 What is its recorded GI50?
Out: > 100 µM (inactive)

In: // same read-out, input: CCN(CC)C(=S)SNCCc1ccc(S(N)(=O)=O)cc1
Out: 13.9 µM (inactive)

In: // same read-out, input: C/C(=N\NC(=O)C(N)=O)c1c(O)cc(C)oc1=O
Out: > 100 µM (inactive)

In: // same read-out, input: COc1ccc(S(=O)(=O)N/N=C/CN2C(=O)c3ccccc3C2=O)cc1OC
Out: 65.2 µM (inactive)

* * *

Tested on: LXFL 529
assay-name: NCI tumour cell line growth inhibition, 48 h
Activity calls are given as the source filed them. No stated cut-off is given here; in the data, active = GI50 up to about 1.1 µM and inactive = higher.
Reported GI50 values are given for each entry in this list.

Below, each entry is followed by its recorded GI50 result.
molecule	parameter-measured	result
CN(C)C(=O)OC(Cn1cncn1)c1ccc(Cl)cc1Cl (centres undefined)	GI50	> 100 µM (inactive)
COC(=O)c1c(-c2ccccc2)cc2c3cc(-c4ccccc4)c(C(=O)OC)n3c3ccccc3n12	GI50	> 100 µM (inactive)
CC(=O)NNc1nc(C)c(C(=O)/C=C/c2cccc([N+](=O)[O-])c2)s1	GI50	> 100 µM (inactive)
CC1OC(CC(=O)O)Cc2c(O)c3c(c(O)c21)C(=O)C=C(C1=CC(=O)c2c(O)c4c(c(O)c2C1=O)CC(CC(=O)O)OC4C)C3=O (centres undefined)	GI50	8.81 µM (inactive)
O=c1c2ccccc2nc(-c2cccc(Cl)c2)n1NC1OC(CO)C(O)C(O)C1O (centres undefined)	GI50	> 100 µM (inactive)

In: Consider the molecule shown here: CN1CCCC2[C@@H]3CCC4c5nonc5CC[C@]4(C)C3CC[C@@]21C (some centres undefined) What is its recorded GI50?
Out: 84.7 µM (inactive)

In: // same read-out, input: Cc1c(N)nc(C2CC(=O)N2CC(N)C(N)=O)nc1C(=O)NC(C(=O)NC(C)C(O)C(C)C(=O)NC(C(=O)NCCc1nc(-c2nc(C(=O)NCCNCC(C)O)cs2)cs1)C(C)O)C(OC1OC(CO)C(O)C(O)C1OC1OC(CO)C(O)C(OC(N)=O)C1O)c1c[nH]cn1 (centres undefined)
Out: > 38 µM (inactive)

In: // same read-out, input: COc1ccc2c(c1OC)C(=O)C2
Out: > 100 µM (inactive)

In: // same read-out, input: CNC(=S)N(C)C(=S)Nn1c(=O)c(C)nn(C)c1=S
Out: > 100 µM (inactive)

* * *

Tested on: PC-3
assay-name: NCI tumour cell line growth inhibition, 48 h
Active and inactive are the calls of the source. No stated cut-off is given here; in the data, active = GI50 up to about 1.1 µM and inactive = higher. Residues, ends and D or L forms follow the SMILES beside them. *: point of attachment. Boc = CC(C)(C)OC(=O)*; Bz = O=C(c1ccccc1)*
parameter-measured: GI50

Below, each entry is followed by its recorded GI50 result.
compound	GI50
CC(=O)Oc1ccn2nc(C)c(Cc3c(C)nn4ccc(OC(C)=O)cc34)c2c1	> 10 µM (inactive)
CC(NC(=O)C(Cc1ccc(OC(=O)c2ccccc2)cc1)NC(=O)OC(C)(C)C)C(=O)NC(Cc1ccccc1)C(=O)NCC(N)=O (stereo not drawn) (Boc-Y(Bz)AFG-NH2; configuration not given here)	18 µM (inactive)
Cn1c2c3ccc(Cl)cc3nc-2c(Cl)c2ccccc21	13.7 µM (inactive)
CC(=O)OCC1OC(N2C(C)=C(C(C)=O)C(c3ccc(Cl)cc3)C(C#N)=C2S)C(OC(C)=O)C(OC(C)=O)C1OC(C)=O (stereo not drawn)	36 µM (inactive)
O=C1c2ccccc2C(=O)c2c(Nc3cc4c5c(ccc6c7ccc8c9c(cc(Nc%10cccc%11c%10C(=O)c%10ccccc%10C%11=O)c(c3c56)c97)-c3ccccc3C8=O)C(=O)c3ccccc3-4)cccc21	70.6 µM (inactive)

In: Lookup: GI50 / PC-3 / CC(C)OP(=O)(CCCCCCCCC/C=C/c1ccc2c(c1)OCCOCCOCCOCCO2)OC(C)C
Out: 2.84 µM (inactive)

In: // same read-out, input: O=C(C1OC1c1ccc([N+](=O)[O-])cc1)C12CC3CC(CC(C3)C1)C2 (stereo not drawn)
Out: 14.6 µM (inactive)

In: // same read-out, input: CC(=O)Oc1cc(OC(C)=O)c2c(C)cc(=O)oc2c1
Out: > 100 µM (inactive)
